Target: rat vanilloid receptor 1 (VR1/TRPV1) (Rattus norvegicus)
Construct: expressed in transfected cells; host or cells: CHO K1 cells (ECACC)
Sequence (O35433 whole entry): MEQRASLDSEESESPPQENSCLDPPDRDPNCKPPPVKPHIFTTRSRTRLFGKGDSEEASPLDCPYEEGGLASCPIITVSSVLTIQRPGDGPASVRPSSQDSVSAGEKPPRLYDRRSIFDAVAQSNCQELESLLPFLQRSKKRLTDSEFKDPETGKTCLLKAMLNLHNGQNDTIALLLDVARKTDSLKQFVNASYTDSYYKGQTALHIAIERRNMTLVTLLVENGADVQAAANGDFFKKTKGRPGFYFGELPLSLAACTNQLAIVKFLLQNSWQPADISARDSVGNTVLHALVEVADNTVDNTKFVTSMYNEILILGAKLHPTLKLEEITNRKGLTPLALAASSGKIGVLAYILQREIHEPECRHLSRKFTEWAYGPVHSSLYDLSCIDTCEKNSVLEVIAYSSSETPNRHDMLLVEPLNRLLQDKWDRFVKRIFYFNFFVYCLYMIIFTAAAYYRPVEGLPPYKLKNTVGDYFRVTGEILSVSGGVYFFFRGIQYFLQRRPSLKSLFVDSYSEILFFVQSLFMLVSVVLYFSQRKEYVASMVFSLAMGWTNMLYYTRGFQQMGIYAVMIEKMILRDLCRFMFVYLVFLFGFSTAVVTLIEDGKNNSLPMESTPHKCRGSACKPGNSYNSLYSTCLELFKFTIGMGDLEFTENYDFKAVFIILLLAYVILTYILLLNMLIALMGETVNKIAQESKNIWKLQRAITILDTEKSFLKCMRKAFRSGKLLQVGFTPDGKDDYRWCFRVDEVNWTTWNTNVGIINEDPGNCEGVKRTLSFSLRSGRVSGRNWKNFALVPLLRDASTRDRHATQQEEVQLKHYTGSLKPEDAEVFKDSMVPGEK
Assay: FLIPR Ca2+ influx functional study on rat vanilloid receptor 1
Assay type: cell-based
Conditions: test substance 10 μM; CHO K1 cells transfected with rat VR1; Ca2+ signal relative to 10 μM capsaicin; read-out: VR1 (Rat) (% Stimulation compared with 10 μM CP)
# Emax at 10 µM values compiled below
# number only, unit % dropped from output

Examples with answers:
[[record]]
smiles_representation = "CCc1ccc(/C=C/C(=O)NCc2ccc(O)c(OC)c2)cc1"
test_target = "rat vanilloid receptor 1 (VR1/TRPV1) (Rattus norvegicus)"
unit_descriptor = "%"
recorded_measurement = 84

[[record]]
smiles_representation = "COc1cc(CNC(=O)/C=C/c2ccc(C)cc2)ccc1O"
test_target = "rat vanilloid receptor 1 (VR1/TRPV1) (Rattus norvegicus)"
unit_descriptor = "%"
recorded_measurement = 92

[[record]]
smiles_representation = "CCCc1ccc(/C=C/C(=O)NCc2ccc(O)c(OC)c2)cc1"
test_target = "rat vanilloid receptor 1 (VR1/TRPV1) (Rattus norvegicus)"
unit_descriptor = "%"
recorded_measurement = 119


In plain terms, CCCCCCCCc1ccc(/C=C/C(=O)NCc2ccc(O)c(OC)c2)cc1 has a documented Emax at 10 µM of 126
